Tested on: ACHN renal
protocolText: NCI tumour cell line growth inhibition, 48 h
Where a SMILES comes first, the peptide text is derived from it. [ ]: non-standard residue; d: D form. The star is where a group is joined. Bn2Val = CC(C)[C@@H](C(=O)*)N(Cc1ccccc1)Cc1ccccc1; NMeV = CN[C@H](C(=O)O)C(C)C; X29 = COc1ccc(CN*)c(OC)c1; dNMeA = CN[C@H](C)C(=O)O
measuredParameter: TGI

Previously resolved entries follow.
• COc1ccc(CNC(=O)[C@@H]2CCCN2C(=O)[C@@H](C)N(C)C(=O)[C@H](C(C)C)N(C)C(=O)[C@@H](NC(=O)[C@H](C(C)C)N(Cc2ccccc2)Cc2ccccc2)C(C)C)c(OC)c1 (Bn2Val-V[NMeV][dNMeA]P-X29) = 13.9 µM
• OCC(CCc1ccccc1I)C1=CCC2(CC1)OCCO2 (stereo not drawn) = > 100 µM
• O=C(/C=C/c1ccc(C(F)(F)F)cc1)Nc1ccc(C=C2c3ccccc3C(=O)c3ccccc32)cc1 = > 100 µM
• CO[C@H]1O[C@@H]2CO[C@@H](c3ccccc3)O[C@H]2[C@@H]2C/C=C\CCC[C@@]12O = 38.1 µM

Looking up CCCCCCCCCC(=O)N[C@@H](c1ccco1)[C@@H](O)C(=O)O[C@H]1C[C@@]2(O)[C@@H](OC(=O)c3ccccc3)[C@@H]3[C@]4(OC(C)=O)CO[C@@H]4C[C@H](O)[C@@]3(C)C(=O)[C@H](OC(C)=O)C(=C1C)C2(C)C , I found its TGI recorded as > 22.7 µM

TGI recorded for this compound, CCCC1C(=O)Nc2cccc3ncn(c23)C1=O (stereo not drawn) , is > 100 µM

Record CC(C)(O)C1CC[C@]2(C)[C@H]3CC[C@@H]4[C@@]5(C)CCCC(C)(C)[C@@H]5CC[C@@]4(C)[C@]3(C)CC[C@@H]12 (stereo partly drawn) , field TGI: > 100 µM
